- ASSAY NOTES: growth modulation of vineyard yeast isolate – strain RM11-1a, OD600, basal, 24 h, primary screen (AID 1177);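 note: cultures grown under basal conditions with no added stressor; test concentration not given here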
- REPORTED CONDITIONS: S. cerevisiae RM11-1a growth, OD600, 24 h; higher = more signal, called active from +8 up or from −8 down
The source made the active and inactive calls.
METRIC: z-score

Would you please look over these solved cases?
smiles_text=C=C(CCCC)/C(=C/C[C@H](OC(=O)c1ccncc1)c1ccc(OCCO)cc1)c1cc(C(=O)OC)ccc1OC metric=z-score test_result="0.395 (inactive)"
smiles_text=C[N+](C)(C)CCCCCCNC(=O)[C@H]1C[C@H]2C(=O)N[C@@H](Cc3ccccc3)C(=O)N2[C@H]1c1cccc(OCCO)c1 metric=z-score test_result="0.548 (inactive)"
smiles_text=O=C1C[C@@](C(=O)NCc2ccccc2)(c2ccc([N+](=O)[O-])cc2)[C@@H](c2ccc(CO)cc2)N1CC12CC3CC(CC(C3)C1)C2 metric=z-score test_result="0.87 (inactive)"
smiles_text=COC(=O)C(CC#Cc1ccc2c(c1)[C@]1(C(=O)N2)[C@H](c2ccccc2OCCO)N2[C@H](c3ccccc3)[C@H](c3ccccc3)OC(=O)[C@H]2[C@@H]1C(=O)O)C(=O)OC metric=z-score test_result="2.98 (inactive)"
smiles_text=COc1cc(CO)cc(I)c1O[C@H]1C=C(C(=O)NCCO)C[C@@H](N(C(=O)c2cc3ccccc3oc2=O)C2CCCCCC2)[C@@H]1O metric=z-score test_result="-0.0819 (inactive)"
smiles_text=CC#CC(=O)Oc1ccc(Br)cc1C=CC(=O)OCC metric=z-score test_result="-10.6 (active)"

// below: z-score requested for another compound
input: Name the recorded z-score of the item `COC(=O)C(CC#Cc1ccc2c(c1)[C@]1(C(=O)N2)[C@H](c2ccccc2OCCO)N2[C@H](c3ccccc3)[C@H](c3ccccc3)OC(=O)[C@H]2[C@@H]1C(N)=O)C(=O)OC` in your answer.
output: 1.77 (inactive)
